Hello, the source for this data is patent US20120264685A1, in case you need it.

test: Stability in liver microsomes; assay type: in vitro ADME, human; settings: 2 μM, 37° C., 24 h
Where a SMILES comes first, the peptide text is derived from it. [ ]: non-standard residue; d: D form. ξ: configuration not given here. ξαMeBip(2'-Et,4'-OMe) = CCc1cc(OC)ccc1-c1ccc(CC(C)(N)C(=O)O)cc1; ξαMe(hhPhe) = CC(N)(CCCc1ccccc1)C(=O)O; ξαMeP = CC1(C(=O)O)CCCN1
Test Readout: % degradation in 24 h when incubated with liver microsomes (%)
Your answer should be a plain number; it is taken to be in %.

Which % degradation in 24 h when incubated with liver microsomes is listed for CCc1cc(OC)ccc1-c1ccc(CC(C)(NC(=O)[C@H](CC(=O)O)NC(=O)[C@H](CO)NC(=O)[C@@H](NC(=O)[C@H](Cc2ccccc2)NC(=O)[C@@H](NC(=O)CNC(=O)[C@H](CCC(=O)O)NC(=O)C2(C)CCCN2C(=O)[C@H](Cc2c[nH]cn2)NC(=O)[C@@H](N)C(C)C)[C@@H](C)O)[C@@H](C)O)C(=O)NC(C)(CCCc2ccccc2)C(N)=O)cc1 (stereo partly shown) [compound 140] (H-VH[ξαMeP]EGTFTSD[ξαMeBip(2'-Et,4'-OMe)][ξαMe(hhPhe)]-NH2) ?
100
